- ASSAY SYSTEM: T1, human CX3CR1 (human, UniProt P49238 1-355)
- T1 construct: overexpressed on CHO, BA/F3 or HEK293T cells; also called huCX3CR1; hCX3CR1
- T1 sequence: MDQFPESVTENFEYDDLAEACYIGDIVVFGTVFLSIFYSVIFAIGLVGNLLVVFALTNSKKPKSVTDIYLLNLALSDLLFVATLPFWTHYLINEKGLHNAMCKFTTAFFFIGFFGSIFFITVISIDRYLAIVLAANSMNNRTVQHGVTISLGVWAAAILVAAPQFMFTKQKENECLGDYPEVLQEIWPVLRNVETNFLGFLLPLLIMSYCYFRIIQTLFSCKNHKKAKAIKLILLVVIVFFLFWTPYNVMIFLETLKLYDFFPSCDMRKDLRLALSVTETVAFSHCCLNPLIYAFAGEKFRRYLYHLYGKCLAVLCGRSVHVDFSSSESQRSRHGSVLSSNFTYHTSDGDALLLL
- ASSAY OVERVIEW: A647-fractalkine competition FACS, HEK293-huCX3CR1
PROPERTY: % block (%)
# value in %; strip the unit string

Before answering, review these 2 worked examples.
BINDER	MEASUREMENT UNITS	% block
CX3CR1BIIPMP61B2 (VHH, also called 61B02; not shown: C-terminal c-myc and His6 tags) VHH: EVQLVESRGGSVQAGASLRLSCAASGSIFSSNAMAWYRQAPGKQRDLVAVINTVGITKYADSVKGRFTISRDNAKNTVYLQMNSLKPEDTAVYYCTSDARRGWDTRYWGQGTQVTVSS	%	94
CX3CR1BIIPMP54H1 (VHH, also called 54H01; not shown: C-terminal c-myc and His6 tags) VHH: EVQLVESGGGSVQAGESLRLSCAASGTIFSSNAMAWYRQAPGKQRDLVAGINSVDITKYADSVKGRFTVSRDNAKNTVYLQMNSLKPEDTAVYYCTSDPRRGWNTRYWGQGTQVTVSS	%	64

Looking up CX3CR1BIIPMP54B3 (VHH, also called 54B03; not shown: C-terminal c-myc and His6 tags) VHH: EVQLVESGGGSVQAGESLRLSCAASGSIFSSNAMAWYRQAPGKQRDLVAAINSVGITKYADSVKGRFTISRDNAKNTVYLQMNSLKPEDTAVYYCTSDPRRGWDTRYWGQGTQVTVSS , I see its % block listed as 92

Looking up CX3CR1BIIPMP54A12 (VHH, also called CX3CR1BII54A12; not shown: C-terminal c-myc and His6 tags) VHH: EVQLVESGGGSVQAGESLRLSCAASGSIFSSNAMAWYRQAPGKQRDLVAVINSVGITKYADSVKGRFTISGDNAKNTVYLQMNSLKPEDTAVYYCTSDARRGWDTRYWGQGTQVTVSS , I see its % block listed as 96

Looking up CX3CR1BIIPMP66B02 (VHH, alexa647 label where used as labeled competitor (Table 23), also called CX3CR1BII66B02; C100CX3CR1BII66B02; not shown: C-terminal c-myc and His6 tags) VHH: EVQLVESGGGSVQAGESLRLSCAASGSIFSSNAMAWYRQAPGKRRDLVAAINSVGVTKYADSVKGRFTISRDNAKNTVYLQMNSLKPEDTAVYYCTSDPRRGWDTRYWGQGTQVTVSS , I see its % block listed as 102

Looking up CX3CR1BIIPMP61F11 (VHH, not shown: C-terminal c-myc and His6 tags) VHH: KVQLVESGGGSVQAGESLRLSCAASGSIFSSNAMAWYRQPPGKQRDLVAAINSVGITKYADSVKGRFTIFRDNAKNTVYLQMNSLKPEDTAVYYCTSDPRRGWDTRYWGQGTQVTVSS , I see its % block listed as 96

Looking up CX3CR1BIIPMP54D5 (VHH, also called 54D05; CX3CR1BII54D5; not shown: C-terminal c-myc and His6 tags) VHH: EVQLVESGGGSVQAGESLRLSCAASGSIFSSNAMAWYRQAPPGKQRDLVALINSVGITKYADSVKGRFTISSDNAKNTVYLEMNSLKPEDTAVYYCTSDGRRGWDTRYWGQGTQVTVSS , I see its % block listed as 94

Looking up CX3CR1BIIPMP54G3 (VHH, also called 54G03; not shown: C-terminal c-myc and His6 tags) VHH: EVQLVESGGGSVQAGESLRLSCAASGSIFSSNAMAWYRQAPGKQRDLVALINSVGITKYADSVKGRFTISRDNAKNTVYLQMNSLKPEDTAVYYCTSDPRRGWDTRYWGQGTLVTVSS , I see its % block listed as 89
